Source listed as BindingDB's records for doi:10.1111/cbdd.12443.

Target: Phosphodiesterase (Trypanosoma brucei, UniProt Q8WQX9)
Sequence (Q8WQX9 whole entry): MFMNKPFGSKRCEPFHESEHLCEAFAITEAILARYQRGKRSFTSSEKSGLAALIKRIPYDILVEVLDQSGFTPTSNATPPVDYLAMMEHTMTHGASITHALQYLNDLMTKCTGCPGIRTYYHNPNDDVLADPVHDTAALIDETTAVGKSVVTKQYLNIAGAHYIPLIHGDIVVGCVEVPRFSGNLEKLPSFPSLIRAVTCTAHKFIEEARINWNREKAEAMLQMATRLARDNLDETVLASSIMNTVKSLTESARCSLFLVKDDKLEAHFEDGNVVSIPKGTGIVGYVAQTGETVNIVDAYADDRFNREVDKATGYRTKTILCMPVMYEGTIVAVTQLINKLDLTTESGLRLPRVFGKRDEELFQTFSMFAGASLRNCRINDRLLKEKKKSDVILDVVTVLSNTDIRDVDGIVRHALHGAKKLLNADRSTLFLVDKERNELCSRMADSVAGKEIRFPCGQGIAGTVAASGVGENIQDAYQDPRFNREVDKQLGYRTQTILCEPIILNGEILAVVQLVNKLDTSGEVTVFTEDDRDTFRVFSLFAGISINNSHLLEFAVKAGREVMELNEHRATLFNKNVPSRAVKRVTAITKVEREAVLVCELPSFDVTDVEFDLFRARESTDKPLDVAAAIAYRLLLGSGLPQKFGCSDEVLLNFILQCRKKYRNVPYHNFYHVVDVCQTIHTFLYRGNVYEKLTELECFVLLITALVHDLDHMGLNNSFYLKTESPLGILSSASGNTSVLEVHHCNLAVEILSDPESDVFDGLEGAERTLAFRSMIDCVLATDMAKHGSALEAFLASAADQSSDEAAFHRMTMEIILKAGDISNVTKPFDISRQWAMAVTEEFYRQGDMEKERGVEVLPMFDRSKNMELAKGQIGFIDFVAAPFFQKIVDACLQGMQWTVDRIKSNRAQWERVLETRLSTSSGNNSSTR
Assay: TbrPDEB1 Enzyme Assay
Details: pH 7.4
Procedure: In short, recombinant TbrPDEB1 and TbrPDEB2 were assayed in 10 mM Tris pH 7.4, bovine serum albumin (0.2 mg/mL), 10 mM MgCl2, 25µM cAMP (Enzo Lifesciences) and an excess of 5 endonucleotidase (>1000U) at 37 °C. Excess amount of 5 endonucleotidase was determined by titration (Enzo Lifesciences). […] This was measured by absorbance at 620 nm using a Tecan Sunrise plate reader. […] Initial velocity was determined by linear regression and IC50 values were calculated
pIC50: −log10 of the molar value.
Criterion: pIC50 meeting or surpassing 5. Met: T. Not met: F.

Use these answered entries as a reference point.
# Chemical Structure, Class Name
records = [
    ("COc1cccc(Nc2c(C(N)=O)cnc3c(C)cc(-c4ccc5[nH]ccc5c4)cc23)c1", "T"),
    ("COc1cccc(Nc2c(C(N)=O)cnc3c(C)cc(S(=O)(=O)c4cccc(C(=O)N(C)C)c4)cc23)c1", "F"),
    ("Cc1cc(-c2cccc(-c3ncco3)c2)cc2c(NC3CCCC3)c(C(N)=O)cnc12", "T"),
    ("COC(=O)c1cccc(-c2cc(C)c3ncc(C(N)=O)c(Nc4cccnc4)c3c2)c1", "F"),
    ("COc1cccc(Nc2c(C(N)=O)cnc3c(C)cc(S(=O)(=O)c4cccc(C(=O)O)c4)cc23)c1", "T"),
]

Textbook exercise: given the entry COc1ccc(Nc2c(C(N)=O)cnc3c(C)cc(-c4ccc5cnn(C)c5c4)cc23)cc1C , state whether its pIC50 is greater than or equal to 5.
T

For this molecule, is measured pIC50 5 or higher? COc1cccc(Nc2c(C(N)=O)cnc3c(C)cc(-c4cccc(-c5nnc(C)s5)c4)cc23)c1
T

Entry COc1cccc(Nc2c(C(N)=O)cnc3c(C)cc(-c4cccc(-c5ncco5)c4)cc23)c1 : is its pIC50 no less than 5?
T
